# Test system: S. aureus (ISP479R)
# Format: cell-based, Staphylococcus aureus
# Experimental conditions: MHB, 2–5 × 10^5 CFU/mL, 16–18 h, 37 °C, OD600
Non-standard residues stand in square brackets, D forms with d. Residues, ends and D or L forms follow the SMILES beside them. d1Nal = N[C@H](Cc1cccc2ccccc12)C(=O)O; 12Ado = NCCCCCCCCCCCC(=O)O; Aoc = NCCCCCCCC(=O)O
Listing: Minimum inhibitory concentration, MIC of selected compounds
Measurement name: Minimum inhibitory concentration, MIC (mg/L)

• N=C(N)NCCC[C@H](NC(=O)[C@@H](Cc1cccc2ccccc12)NC(=O)CCCCCCCNC(=O)[C@@H](Cc1cccc2ccccc12)NC(=O)[C@@H](N)CCCNC(=N)N)C(N)=O [S-9] (H-R[d1Nal][Aoc][d1Nal]R-NH2) = 45.4
• N=C(N)NCCC[C@H](NC(=O)C(Cc1c(F)c(F)c(F)c(F)c1F)NC(=O)[C@H](CCCNC(=N)N)NC(=O)[C@@H](N)Cc1c[nH]c2ccccc12)C(=O)N[C@@H](Cc1c[nH]c2ccccc12)C(N)=O (stereo partly drawn) [S-4] (HELM PEPTIDE1{W.R.[O=C(C(Cc1c(F)c(F)c(F)c(F)c1F)N[*:1])[*:2]].R.W.[am]}$$$$V2.0) = 45.4
• N=C(N)NCCC[C@H](NC(=O)[C@@H](Cc1cccc2ccccc12)NC(=O)CCCCCCCCCCCNC(=O)[C@@H](Cc1cccc2ccccc12)NC(=O)[C@@H](N)CCCNC(=N)N)C(N)=O [S-8] (H-R[d1Nal][12Ado][d1Nal]R-NH2) = 0.7

###

Listing: % hemolysis of selected molecules
# Tested on: mouse red blood cells (RBCs)
# Test method notes: Hemolysis assay
# Assay type: cell-based
# Experimental conditions: mouse RBC, up to 250 μg/mL, 1 h, 37 °C, PBS pH 7.4; 0.1% Triton X-100 = 100%; data not shown
# Experimental: For the experiment, a previously defined procedure was used with slight modifications[67],[68]. Briefly, blood was withdrawn from mice on the day of the experiment. […] The hemoglobin release was quantified by measuring OD414 in an ELISA plate reader (Molecular Devices, Sunnyvale, CA, USA). […] Percentage hemolysis was calculated using the following equation:1 %hemolysis=[(Asample−APBS)/(Amax−APBS)]×100
Non-standard residues stand in square brackets, D forms with d. Residues, ends and D or L forms follow the SMILES beside them. d1Nal = N[C@H](Cc1cccc2ccccc12)C(=O)O; Aoc = NCCCCCCCC(=O)O
Measurement name: % hemolysis

- N=C(N)NCCC[C@H](NC(=O)C(Cc1c(F)c(F)c(F)c(F)c1F)NC(=O)[C@H](CCCNC(=N)N)NC(=O)[C@@H](N)Cc1c[nH]c2ccccc12)C(=O)N[C@@H](Cc1c[nH]c2ccccc12)C(N)=O (some centres unmarked) [S-4] (HELM PEPTIDE1{W.R.[O=C(C(Cc1c(F)c(F)c(F)c(F)c1F)N[*:1])[*:2]].R.W.[am]}$$$$V2.0): < 5%
- N=C(N)NCCC[C@H](NC(=O)[C@@H](Cc1cccc2ccccc12)NC(=O)CCCCCCCNC(=O)[C@@H](Cc1cccc2ccccc12)NC(=O)[C@@H](N)CCCNC(=N)N)C(N)=O [S-9] (H-R[d1Nal][Aoc][d1Nal]R-NH2): < 5%
